Numbers sourced from patent EP4703388A1.

- TEST TARGET: T1, cyno TF ECD-His (cTF-his) (monkey (cyno))
- T1 construct: also called bio-cTF-his; monkey TF-His protein
- T1 chain: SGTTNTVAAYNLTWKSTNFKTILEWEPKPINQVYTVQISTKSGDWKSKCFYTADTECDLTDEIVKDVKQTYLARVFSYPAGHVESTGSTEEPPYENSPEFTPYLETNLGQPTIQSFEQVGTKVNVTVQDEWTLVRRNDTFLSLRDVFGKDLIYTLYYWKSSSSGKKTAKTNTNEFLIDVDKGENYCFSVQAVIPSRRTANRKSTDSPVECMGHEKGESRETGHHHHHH
- ASSAY COMMENT: SPR Biacore T200, antibody on Protein A chip, TF-His as analyte, 1:1 model
MEASURE NAME: Kd (nM)
// units = nM; emit number, no label

Given hu67-13 (antibody, human IgG1, kappa, V domains shown) VH: EVTLKQSGPVLVKPTQTLTLTCTVSGFSLTNYGVNWIRQPPRKALEWLAVIWSRGNTDYNAAFISRLTISKDTSKSQVVLKMTNMDPVDTATYYCARKDAVVATDALDYWGQGTTVTVSS VL: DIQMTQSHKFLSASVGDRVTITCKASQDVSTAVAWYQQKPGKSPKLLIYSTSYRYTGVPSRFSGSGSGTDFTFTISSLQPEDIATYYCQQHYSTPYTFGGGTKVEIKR , state its recorded Kd.
10.9
